Data provenance: patent US20120121533

Target: T1, LL37 (human cathelicidin peptide LL-37) (Homo sapiens, UniProt P49913 P49913:134-170)
T1 chain: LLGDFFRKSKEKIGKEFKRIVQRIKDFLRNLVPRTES
Assay: SPR; biotinylated aptamer immobilised, increasing LL37 added; nonsense DNA on reference channel
Conditions: label: biotin (immobilised on neutravidin SPR chip)
readout_type: Kd (nM)

- binder: "ACTGGGTCTCACCATCGAAAATCGAAATGACTAAAAGGCC (ssDNA) [SEQ7 (Apta#222)]"
  readout_type: "Kd"
  scale_unit: "nM"
  observed_value: 118
